ASSAY_TEXT: photoluminescence quantum yield (fraction); solvent given as SMILES
RUN_CONDITIONS: in CS(C)=O
class 1 means recorded photoluminescence quantum yield is 0.3 or above; class 0 means it is below 0.3.

Answered examples (6):
CN(C)c1ccc(/C=C/c2nc3ccccc3s2)cc1; class 0
Cc1ccc(C2CC(c3ccc(O)cc3)=NN2c2ccc(S(N)(=O)=O)cc2)cc1 (stereo unspecified); class 1
O=Cc1cc(O)ccc1O; class 0
CN(C)c1ccc2nc(-c3ccc(C(=O)O)cc3)sc2c1; class 1
CCOC(=O)C1=C(C)NC2=C(C(=O)c3ccccc32)C1c1ccc(N(C)C)cc1 (stereo unspecified); class 0
O=[N+]([O-])c1ccc(-c2nc3c(c4c2-c2ccccc2CC4)-c2ccccc2CC3)cc1; class 0

Tell me whether photoluminescence quantum yield is at least 0.3 here: `O=C1/C(=C2\Sc3ccc(S(=O)(=O)Cl)cc3C2=O)Sc2ccc(S(=O)(=O)Cl)cc21`
class 0

Tell me whether photoluminescence quantum yield is at least 0.3 here: `COc1cc2c3cc(OC)c(OC)cc3c3cc4c(C)cc(=O)oc4cc3c2cc1OC`
class 0

Tell me whether photoluminescence quantum yield is at least 0.3 here: `COc1ccc(/C=C/C2=CC(/C=C/c3ccc(OC)cc3)=[O+][B-](OC(C)=O)(OC(C)=O)O2)cc1`
class 1

Tell me whether photoluminescence quantum yield is at least 0.3 here: `C1=Nc2cccc3cccc(c23)N1`
class 0

Tell me whether photoluminescence quantum yield is at least 0.3 here: `CC(C)(C)OC(=O)COc1ccc2c(c1)oc(=O)c1c(=O)oc3ccccc3c12`
class 1
